# systemUnderTest: T1, human TGFβ3 (human, UniProt P10600 301-412)
# T1 sequence: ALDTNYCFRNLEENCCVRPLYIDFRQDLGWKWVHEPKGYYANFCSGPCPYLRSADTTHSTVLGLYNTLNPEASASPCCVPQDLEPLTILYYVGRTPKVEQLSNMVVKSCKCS
# testName: Biacore off-rate vs wt GC1008, 50 nM
Give measured kd var/kd wt for each item. Keep answers brief.

Below, 4 binders whose answers are already recorded.
1. I54F (antibody, V domains shown, GC1008 IgG4 variant) VH: QVQLVQSGAEVKKPGSSVKVSCKASGYTFSSNVISWVRQAPGQGLEWMGGVIPFVDIANYAQRFKGRVTITADESTSTTYMELSSLRSEDTAVYYCASTLGLVLDAMDYWGQGTLVTVSS VL: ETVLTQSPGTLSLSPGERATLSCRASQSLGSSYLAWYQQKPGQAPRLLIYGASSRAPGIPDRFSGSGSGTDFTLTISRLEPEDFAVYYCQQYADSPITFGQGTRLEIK    1.2
2. N32W (antibody, V domains shown, GC1008 IgG4 variant) VH: QVQLVQSGAEVKKPGSSVKVSCKASGYTFSSWVISWVRQAPGQGLEWMGGVIPIVDIANYAQRFKGRVTITADESTSTTYMELSSLRSEDTAVYYCASTLGLVLDAMDYWGQGTLVTVSS VL: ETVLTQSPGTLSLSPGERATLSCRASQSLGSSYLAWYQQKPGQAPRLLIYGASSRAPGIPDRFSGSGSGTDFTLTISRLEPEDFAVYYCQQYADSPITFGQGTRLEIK    1.1
3. Y27F (antibody, V domains shown, GC1008 IgG4 variant) VH: QVQLVQSGAEVKKPGSSVKVSCKASGFTFSSNVISWVRQAPGQGLEWMGGVIPIVDIANYAQRFKGRVTITADESTSTTYMELSSLRSEDTAVYYCASTLGLVLDAMDYWGQGTLVTVSS VL: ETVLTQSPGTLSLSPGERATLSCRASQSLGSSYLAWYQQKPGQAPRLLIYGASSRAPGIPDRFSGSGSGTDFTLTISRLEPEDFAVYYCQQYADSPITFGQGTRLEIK    1.1
4. Y27I (antibody, V domains shown, GC1008 IgG4 variant) VH: QVQLVQSGAEVKKPGSSVKVSCKASGITFSSNVISWVRQAPGQGLEWMGGVIPIVDIANYAQRFKGRVTITADESTSTTYMELSSLRSEDTAVYYCASTLGLVLDAMDYWGQGTLVTVSS VL: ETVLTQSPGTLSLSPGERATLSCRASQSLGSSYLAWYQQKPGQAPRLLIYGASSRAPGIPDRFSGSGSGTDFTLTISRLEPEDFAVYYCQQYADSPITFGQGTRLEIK    1.1

Proceed to the following item.
Query S30Q (antibody, V domains shown, GC1008 IgG4 variant) VH: QVQLVQSGAEVKKPGSSVKVSCKASGYTFQSNVISWVRQAPGQGLEWMGGVIPIVDIANYAQRFKGRVTITADESTSTTYMELSSLRSEDTAVYYCASTLGLVLDAMDYWGQGTLVTVSS VL: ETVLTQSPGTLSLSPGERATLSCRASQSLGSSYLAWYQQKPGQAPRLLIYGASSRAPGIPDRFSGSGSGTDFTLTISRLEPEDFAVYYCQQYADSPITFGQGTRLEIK yields kd var/kd wt of 1.1
